Please respond with reported number of viable cells (OD value) for every item in the list.
- Tested on: T-iPS-T cells
- ASSAY_PROTOCOL: Number of viable T-iPS-T cells under feeder-free culture (CD3/CD28 Dynabeads, Cell Count Reagent SF, absorbance 450 nm/650 nm)
- Type: cell-based, human
- TEST_PARAMETERS: 1 μM; T-iPS-T cells after 1st expansion, 6 days; DMSO control 0.225 ± 0.017
Marks after values point to notes of the source that are not given here.

// query Find the recorded number of viable cells (OD value) belonging to COc1cc2c3cc1Oc1c(OC)c(OC)cc4c1C(Cc1ccc(OC(=O)c5cc6ccccc6[nH]5)c(c1)Oc1ccc(cc1)CC3N(C)CC2)N(C)CC4 (centres unmarked) and report it.
// result 0.186 ± 0.001

// query Find the recorded number of viable cells (OD value) belonging to COc1cc2c3cc1Oc1c(OC)c(OC)cc4c1C(Cc1ccc(OS(=O)(=O)c5ccccc5)c(c1)Oc1ccc(cc1)CC3N(C)CC2)N(C)CC4 (centres unmarked) and report it.
// result 0.529 ± 0.101 **

// query Find the recorded number of viable cells (OD value) belonging to COc1cc2c3cc1Oc1c(OC)c(OC)cc4c1C(Cc1ccc(OC(=O)c5ccccc5)c(c1)Oc1ccc(cc1)CC3N(C)CC2)N(C)CC4 (centres unmarked) and report it.
// result 0.288 ± 0.041

// query Find the recorded number of viable cells (OD value) belonging to COc1cc2c3cc1Oc1c(OC)c(OC)cc4c1C(Cc1ccc(OCCCNC(=O)c5cscn5)c(c1)Oc1ccc(cc1)CC3N(C)CC2)N(C)CC4 (centres unmarked) and report it.
// result 0.561 ± 0.035 ***

// query Find the recorded number of viable cells (OD value) belonging to COc1cc2c3cc1Oc1c(OC)c(OC)cc4c1C(Cc1ccc(CCCCBr)c(c1)Oc1ccc(cc1)CC3N(C)CC2)N(C)CC4 (centres unmarked) and report it.
// result 0.493 ± 0.036 ***

// query Find the recorded number of viable cells (OD value) belonging to COc1cc2c3cc1Oc1c(OC)c(OC)cc4c1C(Cc1ccc(OC(=O)CCNC(=O)OC(C)(C)C)c(c1)Oc1ccc(cc1)CC3N(C)CC2)N(C)CC4 (centres unmarked) and report it.
// result 0.462 ± 0.027 ***

// query Find the recorded number of viable cells (OD value) belonging to COc1cc2c3cc1Oc1c(OC)c(OC)cc4c1C(Cc1ccc(OC(=O)c5ccc(Br)cc5)c(c1)Oc1ccc(cc1)CC3N(C)CC2)N(C)CC4 (centres unmarked) and report it.
// result 0.208 ± 0.004

// query Find the recorded number of viable cells (OD value) belonging to COc1cc2c3cc1Oc1c(OC)c(OC)cc4c1C(Cc1ccc(CCCCN5CCCC5)c(c1)Oc1ccc(cc1)CC3N(C)CC2)N(C)CC4 (centres unmarked) and report it.
// result 0.550 ± 0.026 ****

// query Find the recorded number of viable cells (OD value) belonging to COc1cc2c3cc1Oc1c(OC)c(OC)cc4c1[C@@H](Cc1ccc(O)c(c1)Oc1ccc(cc1)C[C@@H]3N(C)CC2)N(C)CC4 and report it.
// result 0.505 ± 0.034 ***

// query Find the recorded number of viable cells (OD value) belonging to COc1ccc(C(=O)NCCCOc2ccc3cc2Oc2ccc(cc2)CC2c4cc(c(OC)cc4CCN2C)Oc2c(OC)c(OC)cc4c2C(C3)N(C)CC4)cc1 (centres unmarked) and report it.
// result 0.301 ± 0.008 **

// query Find the recorded number of viable cells (OD value) belonging to COc1cc2c3cc1Oc1c(OC)c(OC)cc4c1C(Cc1ccc(OCCCNC(=O)c5ccc(-c6ccc(C=O)cc6)cc5)c(c1)Oc1ccc(cc1)CC3N(C)CC2)N(C)CC4 (centres unmarked) and report it.
// result 0.239 ± 0.076

// query Find the recorded number of viable cells (OD value) belonging to COc1cc2c3cc1Oc1c(OC)c(OC)cc4c1C(Cc1ccc(OC(=O)C(C)(C)C)c(c1)Oc1ccc(cc1)CC3N(C)CC2)N(C)CC4 (centres unmarked) and report it.
// result 0.470 ± 0.053 **

// query Find the recorded number of viable cells (OD value) belonging to COc1cc2c3cc1Oc1c(OC)c(OC)cc4c1C(Cc1ccc(OCCCN)c(c1)Oc1ccc(cc1)CC3N(C)CC2)N(C)CC4 (centres unmarked) and report it.
// result 0.328 ± 0.016**

// query Find the recorded number of viable cells (OD value) belonging to COc1cc2c3cc1Oc1c(OC)c(OC)cc4c1C(Cc1ccc(OCc5ccc([N+](=O)[O-])cc5)c(c1)Oc1ccc(cc1)CC3N(C)CC2)N(C)CC4 (centres unmarked) and report it.
// result 0.195 ± 0.002
